meta.source: patent US12281299B2

- Test system: R. sp. IRBG74
- assay-remarks: Genetic part characterization for Rhizobia (promoters, RBSs, terminators, inducible systems; fluorescence reporter, flow cytometry)
- Format: cell-based, Rhizobium sp.
- study-conditions: synthetic RBS strength in R. sp. IRBG74; plasmid pMR-40, IPTG-inducible system, 1 mM IPTG induction
- Excerpt: Construction and characterization genetic parts for Rhizobia. Genetic part libraries were built on a pBBR1-ori plasmid pMR-1 using Gibson assembly (New England Biolabs, Cat # E2611). The fluorescence proteins, GFPmut3b and mRFP1 were used as reporters. […] Terminators for T7 RNAP were characterized by placing a terminator between two fluorescence reporters expressed from a single T7 wild-type promoter located upstream of the first fluorescence protein GFP. […]
Kindly supply the reported Strength (GFP, au) values for the records listed here.
The reply should contain only the number, in au.

Q. Recorded Strength (GFP, au) of RBST-23 (DNA TAACAATTTCACACATCTAGAGCTAATCTTCGCGTACTAATTAGGCAAGTAATG; chemistry not fully specified) , please.
A. 84.4

Q. May I ask what Strength (GFP, au) has been recorded for RBST-10 (DNA TAACAATTTCACACATCTAGAGCTAATCATCGCGTACTAATGAGGCAAGTAATG; chemistry not fully specified) ?
A. 1590

Q. Recorded Strength (GFP, au) of RBST-17 (DNA TAACAATTTCACACATCTAGAGCTAATCTTCTCGTACTAAAGAGGCAAGTAATG; chemistry not fully specified) , please.
A. 488

Q. Look up Strength (GFP, au) for this substance: RB5r2 (DNA ATTTCACACATCTAGAGCTAATCATCGCGTACTCAGGAGGCAAGTAATG; chemistry not fully specified)
A. 7181.5

Q. Look up Strength (GFP, au): RBST-29 (DNA TAACAATTTCACACATCTAGAGCTAATCTTCGCGTACTAAAAACGCAAGTAATG; chemistry not fully specified)
A. 4.6

Q. Which value of Strength (GFP, au) has been reported for RB5r6 (DNA TAACAATTTCACACATCTAGAGCTAATCATCGCGTACTCAAGAGGCAAGTAATG; chemistry not fully specified) in the records?
A. 2614.5

====

- Tested on: P. protegens Pf-5
- assay-remarks: Genetic part characterization for P. protegens (promoters, RBSs, terminators, inducible systems; fluorescence reporter, flow cytometry)
- Format: cell-based, Pseudomonas protegens
- study-conditions: synthetic RBS strength in P. protegens Pf-5; plasmid pMR-65, arabinose-inducible system, 7 μM arabinose induction
For each of the substances below, state its Strength (GFP, au).
Give just the number in au; leave the unit off.

Q. Quick one: Strength (GFP, au) of RBSp13 (DNA GAATTCTAAGCTAACGGACAGGAGGGTCGGATG; expressed or natural sequence) ?
A. 8918

Q. Using the record for RBSp7 (DNA GAATTCTAAACTAACGGACAGGAGGGTCCGATG; expressed or natural sequence) , report its Strength (GFP, au).
A. 13390

Q. # input substance: RBSp15 (DNA GAATTCTCAACTAACGGACAGGAGGGTCCGATG; expressed or natural sequence) ; wanted: its Strength (GFP, au)
A. 7596

Q. Requested field: Strength (GFP, au). Item: RBSp25 (DNA GAATTCTACACTAACGGACAGCAGGGTCGGATG; expressed or natural sequence)
A. 3542

Q. What Strength (GFP, au) value was documented for this substance, RBSp18 (DNA GAATTCTCAGCTAACGGACAGGAGGGTCGGATG; expressed or natural sequence) ?
A. 5915

Q. Reported Strength (GFP, au), substance RBSp17 (DNA GAATTCTCAACTAACGGACAGGAGATATACATATG; expressed or natural sequence) : ____
A. 5939

Q. Request the reported Strength (GFP, au) associated with RBSp23 (DNA GAATTCTAAGCTCACGGACAGGAGGGTCGGATG; expressed or natural sequence)
A. 3829

Q. State the recorded Strength (GFP, au) for this entry: RBSp19 (DNA GAATTCTAAACTAACGGACAGGAGGGTCGGATG; expressed or natural sequence)
A. 4867

Q. // lookup Strength (GFP, au) for RBSp8 (DNA GAATTCTAAGCTAACGGACAGGAGGGTCCGATG; expressed or natural sequence)
A. 12790

Q. Field request: Strength (GFP, au) | item: RBSp29 (DNA CTAGCGAAGGTCCAACCTTTTTCTAAGCCAGTAGGTCATATG; expressed or natural sequence)
A. 377

Q. Which Strength (GFP, au) value belongs to RBSp14 (DNA GAATTCTCAGCTAACGGACAGGAGGGTCCGATG; expressed or natural sequence) ?
A. 8766

Q. Any idea what its Strength (GFP, au) is? The substance is RBSp20 (DNA GAATTCTCAGCTCACGGACAGGAGGGTCGGATG; expressed or natural sequence)
A. 4426

Q. Any idea what its Strength (GFP, au) is? The substance is RBSp31 (DNA GAATTCTCCGCTCACGGACAGGAGGGTCCGATG; expressed or natural sequence)
A. 23.3

Q. Entry under review: RBSp10 (DNA GAATTCTACACTAACGGACAGGAGGGTCGGATG; expressed or natural sequence) . Reported Strength (GFP, au)?
A. 11090

Q. Any idea what its Strength (GFP, au) is? The substance is RBSp21 (DNA GAATTCTCAACTAACGGACAGGAGGGTCGGGATG; expressed or natural sequence)
A. 4110

Q. For the substance shown here, RBSp16 (DNA GAATTCTACGCTAACGGACAGGAGGGTCGGATG; expressed or natural sequence) , give the reported Strength (GFP, au).
A. 6055

Q. # lookup: Strength (GFP, au) of RBSp27 (DNA GAATTCTCAGCTAACGGACAGCAGGGTCGGATG; expressed or natural sequence)
A. 1265

Q. Look up Strength (GFP, au): R135135 (DNA CTAGCGAAGCTCCAACGTTTTTCTAAGCAAGGAGGTCATATG; chemistry not fully specified)
A. 17990

Q. Entry RBSp28 (DNA CTAGCGCAGGTCCAACCTTTTTCTAAGCAACTAGGTCATATG; expressed or natural sequence) has what Strength (GFP, au)?
A. 389

Q. Entry RBSp1 (DNA CTAGCGCAGGTCCAACGTTTTTCTAAGCAAGGAGGTCATATG; expressed or natural sequence) has what Strength (GFP, au)?
A. 25090
